B1: NP_006221.1 (parent)
chain: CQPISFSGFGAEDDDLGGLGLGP

Variants of: B1
Assay: protein stability index of a GFP-peptide fusion (GPS, HEK-293T) (PSI 1-6); higher = more stable;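 note: lentivirally expressed fusion library, cells FACS-sorted into six equal-sized GFP/DsRed ratio bins, PSI computed from sequencing read fractions per bin weighted by bin number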
Settings: c terminus: native
experimentalEndpoint: protein stability index
Number only, no unit.

Need protein stability index of `A11M` , thanks.
2.04

# input variant: `G20Y` ; wanted: its protein stability index
2.83

# protein stability index lookup, item `I4D`
2.48

Which measured protein stability index value corresponds to `D14E` ?
2.17

Request the reported protein stability index associated with `G10N`
2.04

I would be grateful if you could share the reported protein stability index for `G10W` .
1.9

Record request: protein stability index value, item `S5E`
2.99

Suppose we examine the variant `E12F` ; what protein stability index value has been reported?
2.17

What value of measured protein stability index is listed for `F6I` ?
3.63

Entry `G22S` has what protein stability index?
2.1

# protein stability index lookup, item `S5C`
2.16

For the variant `P23A` , what protein stability index is on record?
2.17

Bench note: what protein stability index did `L19M` show?
2.29

Please give the measured protein stability index for this variant: `P23F`
3.04

Bench note: what protein stability index did `G22R` show?
3.32

I'd like to know its protein stability index. The variant in question is `G20L`
3.54

Name the recorded protein stability index for `Q2H` .
2.26

Would you mind telling me what protein stability index value was observed for `G20N` ?
3.93

Field request: protein stability index | item: `G18V`
2.17

Give the measured protein stability index of `I4Q` .
2.15

Value lookup for protein stability index; key = `Q2G`
2.1

# query: protein stability index of entry `G18A`
2.13

Look at this variant and give its reported protein stability index. `E12W`
2.29

Please report the recorded protein stability index for `D13I` .
2.5

Recorded protein stability index for `G8D` , please?
2.05

Give its protein stability index value. Item: `F9S`
2.56

Returns the measured protein stability index for the input variant. Input: `D14T`
2.18

Given the variant `D13V` , what is its reported protein stability index?
2.28

For the variant `F6E` , what protein stability index is on record?
4.72

Would you mind telling me what protein stability index value was observed for `Q2L` ?
2.51

Given `A11Q` , state its recorded protein stability index.
2.32

Query (variant): `F9P` ; field requested: protein stability index
3.23

I have this variant here, `D14S` , and I need its recorded protein stability index.
2.05

Find the recorded protein stability index belonging to `G8N` and report it.
2.24

May I ask what protein stability index has been recorded for `G18W` ?
2.57

Request the reported protein stability index associated with `I4P`
2.2

Need protein stability index of `G22M` , thanks.
2.32

Fill in: protein stability index of `F6Y` is ___
2.52

May I ask what protein stability index has been recorded for `F9Y` ?
2.01

Requested field: protein stability index. Item: `I4T`
2.47

If you can, please state the reported protein stability index value of `D13K` .
1.93

Need protein stability index, item `P3E`
2.46

Any idea what its protein stability index is? The variant is `F6N`
4.41

Please give the measured protein stability index for this variant: `G18N`
2.16

For the variant shown here, `F6L` , give the reported protein stability index.
3.5

Would you kindly share the measured protein stability index for `D15F` ?
2.32
